Listed here: items and their measured CC50 at 24 h.
# EXPERIMENT NOTES: Uninfected HeLa-ACE2 24 h live/dead cytotoxicity counter screen
# Format: cell-based, human
# EXPERIMENTAL PARAMETERS: human, uninfected HeLa-ACE2 cells, reconfirmed hits; read-out: HeLa-ACE2 Uninf. cells CC50
Where a name gives a salt, the structure may show the parent alone.

Check out these entries, answers already filled in.
-- ask Using the record for `CC(=O)N1C[C@H](O)C[C@H]1C(=O)N[C@@H](CCCNC(=N)N)C(=O)c1nc2ccccc2s1` , report its CC50 at 24 h.
-- reply > 40 µM

-- ask Record request: CC50 at 24 h value, item COC(=O)C1=C(C)NC(C)=C(C(=O)OCCN2CCN(C(c3ccccc3)c3ccccc3)CC2)C1c1cccc([N+](=O)[O-])c1 (stereo not shown)
-- reply > 17.1 µM

-- ask For the compound `COc1ccc2c(O[C@@H]3C[C@H]4C(=O)N[C@]5(C(=O)NS(=O)(=O)C6CC6)C[C@H]5/C=C\CCCCN(C)C(=O)[C@@H]4C3)cc(-c3nc(C(C)C)cs3)nc2c1C` , what CC50 at 24 h is on record?
-- reply > 22.2 µM

-- ask Which CC50 at 24 h is reported for this compound? `Nc1ncnc2c1nc(Cl)n2[C@@H]1O[C@H](CO)[C@@H](O)[C@H]1O`
-- reply > 11.9 µM

-- ask Endpoint output: CC50 at 24 h of `N=C(N)Nc1ccc(C(=O)Oc2ccc(S(N)(=O)=O)cc2)cc1` . Value?
-- reply > 40 µM

-- ask CC50 at 24 h lookup needed for CCCCN(CCCC)CCC(O)c1cc2c(Cl)cc(Cl)cc2c2cc(C(F)(F)F)ccc12 (stereo not shown) [Halofantrine HCl] , thanks.
-- reply 18.7 µM

Next up:
-- ask Quick one: CC50 at 24 h of `N=C(N)c1ccc2cc(OC(=O)c3ccc(CNC(=O)CCCC(=O)O)o3)ccc2c1` ?
-- reply > 40 µM
